- Test system: MCF7 breast
- TEST_DETAILS: NCI-60 one-dose screen, 48 h
- COND: 10 µM unless noted
The panel holds about 83,000 compounds, 20% with a hit somewhere; the sample as a whole holds those more often. The source made the active and inactive calls. The calls were made as follows: active = growth percent below 10; inactive = the rest.
Can you answer with just one of these options? t = active, f = inactive

Incoming: For O=C(NOC1OC(CO)C(O)C(O)C1O)Nc1ccccc1 (stereo not drawn) , what call appears in the results of this test?
Outgoing: f

Incoming: Now the compound `COc1cc(C(=O)C[n+]2ccccc2)ccc1OC(C)=O`
Outgoing: f

Incoming: Now the compound `Cc1ccc[n+](CC(=O)c2cccc3ccccc23)c1`
Outgoing: f

Incoming: Now the compound `CCCCOc1nc2ccc(Cl)cc2cc1/C=C/C(=O)/C=C/c1ccc(OC)cc1`
Outgoing: f

Incoming: Now the compound `COc1cc(-c2nc3ccccc3s2)ccc1OCc1nc2n(n1)S(=O)(=O)c1ccccc1N2C`
Outgoing: f

Incoming: Now the compound `COc1ccc(NC(=O)Nc2ccc(-c3ccc(OC)c(OC)c3)nc2C)cc1`
Outgoing: f

Incoming: Now the compound N#CC1=C(N)Oc2c(ccc3ccccc23)C1c1cc(=O)oc2ccc(Cl)cc12 (stereo not drawn)
Outgoing: f

Incoming: Now the compound `Cc1ccccc1C[P+](c1ccccc1)(c1ccccc1)c1ccccc1`
Outgoing: f

Incoming: Now the compound `N#CC(C#N)=C(C#N)c1c[nH]c2ccccc12`
Outgoing: f

Incoming: Now the compound `Nc1nccc2c1ccn2-c1ccc(NC(=O)c2ccc(N3CCOCC3)c(C(F)(F)F)c2)cc1`
Outgoing: t

Incoming: Now the compound `COc1ccc(-c2nnc(SCC(=O)Nc3ccc(C(=O)/C=C/c4ccc(Cl)cc4)cc3)o2)cc1OC`
Outgoing: f

Incoming: Now the compound `O=C(COc1ccc(Cl)cc1)N1CCN(Cc2ccc3c(c2)OCO3)CC1`
Outgoing: f

Incoming: Now the compound `C=C1C(=O)O[C@H]2[C@H]1CC/C(COC(=O)c1ccc(C#N)cc1)=C\CC[C@@]1(C)O[C@@H]21`
Outgoing: t

---

- System: SF-295 CNS
- TEST_DETAILS: NCI-60 one-dose screen, 48 h (100 = growth as untreated, 0 = no growth, -100 = all killed)
- COND: 10 µM unless noted
This is part of a sample that, as a whole, favours compounds with a hit. Of some 83,000 tested, about 20% had one in any assay.
PARAMETER_MEASURED: growth (%)
Your answer should be a plain number; it is taken to be in %.

Incoming: Bench note: what growth did C=CC(C)(O)CCC1C(=C)CCC2C(C)(C)CCCC12C (centres undefined) show?
Outgoing: 99.3

Incoming: Now the compound O=S(c1ccccc1)c1ccc2nnnn2n1 (centres undefined)
Outgoing: 102

Incoming: Now the compound `Nc1ncnc2c1ccn2-c1cccc(NC(=O)c2cccc(C(F)(F)F)c2)c1`
Outgoing: 36.4

Incoming: Now the compound `CN(C)c1ccc(/C=N/N=C(N)N)cc1`
Outgoing: 61.4

---

Assign growth to each entry below.
- System: NCI-H460 lung
- TEST_DETAILS: NCI-60 one-dose screen, 48 h (100 = growth as untreated, 0 = no growth, -100 = all killed)
- COND: 10 µM unless noted
The panel holds about 83,000 compounds, 20% with a hit somewhere; the sample as a whole holds those more often.
Your answer should be a plain number; it is taken to be in %.

Incoming: Bench note: what growth did `O=C1OC(c2ccc(-c3ccccc3)cc2)=C/C1=C/C=C/c1ccccc1` show?
Outgoing: 103

Incoming: Now the molecule `O=C(NCCNc1nccc(-c2c(-c3cccc(O)c3)nc3sccn23)n1)c1cc(N2CCOCC2)cc(C(F)(F)F)c1`
Outgoing: 96.2

Incoming: Now the molecule `Cc1ccc(/C=C2/C(=O)Nc3cc(Cl)c(-c4csc(N)n4)cc32)cc1`
Outgoing: 81.1

---

- Tested on: SW-620 colon
- TEST_DETAILS: NCI-60 one-dose screen, 48 h
- COND: 10 µM unless noted
About 83,000 compounds went through this panel and 20% of them were active in at least one assay; those are over-represented in the sample as a whole. Activity calls are given as the source filed them. How the source made its calls: active means growth percent below 10; inactive means the rest.
Can you answer with just one of these options? 1 (yes) for active, 0 (no) for inactive

Incoming: For CC1CCc2cc(F)cc3c(=O)c(C(=O)O)cn1c23 (stereo not drawn) , what call appears in the results of this test?
Outgoing: 0 (no)

Incoming: Now the compound `CC(C)(C)OC(=O)NCc1cccc(N=C=S)c1`
Outgoing: 0 (no)

Incoming: Now the compound `O=C(Nc1cccc([N+](=O)[O-])c1)Nc1cccc([N+](=O)[O-])c1`
Outgoing: 0 (no)

Incoming: Now the compound COc1ccc(OCC(O)CN2CCN(c3ccc(Cl)cc3)CC2)cc1 (stereo not drawn)
Outgoing: 0 (no)

Incoming: Now the compound `COc1ccc(/C=C/C(=O)c2ccc(-n3cc(CN4CCN(c5cc6c(cc5F)c(=O)c(C(=O)O)cn6C5CC5)CC4)nn3)cc2)cc1OC`
Outgoing: 1 (yes)

Incoming: Now the compound `C=C1C(=O)O[C@H]2[C@H]1CC/C(C(=O)NCCOCCOCC(=O)Nc1ccc(OC)c(C(N)=O)c1O)=C\CC[C@@]1(C)O[C@@H]21`
Outgoing: 0 (no)

Incoming: Now the compound `COc1ccc2c(c1)nnn1c3ncccc3c(N=O)c21`
Outgoing: 1 (yes)

Incoming: Now the compound `O=C(NCCNc1nccc(-c2c(-c3cccc(O)c3)nc3sccn23)n1)Nc1cc(C(F)(F)F)cc(C(F)(F)F)c1`
Outgoing: 0 (no)

Incoming: Now the compound CC(CN(C)C)CN1c2ccccc2CCc2ccccc21 (stereo not drawn)
Outgoing: 0 (no)

Incoming: Now the compound CCC1S/C(=N\N=C(/C)c2cc3ccccc3o2)N(c2ccccc2)C1=O (stereo not drawn)
Outgoing: 0 (no)

Incoming: Now the compound Cc1ccc2oc(=O)cc(C3C(C#N)=C(N)Oc4c3ccc3ccccc43)c2c1 (stereo not drawn)
Outgoing: 0 (no)

Incoming: Now the compound `CC(C)(C)C(=O)/C=c1/[nH]c(=O)/c(=C/c2ccccc2O)s1`
Outgoing: 0 (no)

Incoming: Now the compound `O=C(Nc1ccc(F)cc1)Nc1ccc(Cl)c([N+](=O)[O-])c1`
Outgoing: 0 (no)

---

- Tested on: SN12C renal
- TEST_DETAILS: NCI-60 one-dose screen, 48 h (100 = growth as untreated, 0 = no growth, -100 = all killed)
- COND: 10 µM unless noted
About 83,000 compounds went through this panel and 20% of them were active in at least one assay; those are over-represented in the sample as a whole.
Assign growth to each entry below.
Your answer should be a plain number; it is taken to be in %.

Incoming: Bench note: what growth did `COC(=O)c1oc2c(C(C)=O)c(OCCN3CCCCC3)ccc2c1C` show?
Outgoing: 119

Incoming: Now the compound `CCN(CC)CC(=O)Nc1c(C)cccc1C`
Outgoing: 98.8

Incoming: Now the compound `O=c1cc(Cl)[nH]c(=O)[nH]1`
Outgoing: 107

Incoming: Now the compound `Cn1cnc([N+](=O)[O-])c1N1c2ccncc2Sc2ccncc21`
Outgoing: 113

Incoming: Now the compound `ClC1c2ccccc2CCc2ccccc21`
Outgoing: 103

Incoming: Now the compound `O=c1c2ccccc2sc2c(NCCCNCCO)nc3ccccc3c12`
Outgoing: 44.8

Incoming: Now the compound `CCCCOc1c(N)cc(Cl)cc1C(=O)OCCN(CC)CC`
Outgoing: 97

Incoming: Now the compound `CN(C)C(=O)Nc1nc2cc(Cl)c(Cl)cc2[nH]1`
Outgoing: 51

Incoming: Now the compound `O=C(C[n+]1cccc(Br)c1)c1ccc2c(c1)CCCC2`
Outgoing: 104

Incoming: Now the compound COc1cc(NC(C)CCCN2C(=O)c3ccccc3C2=O)c2nccc(C)c2c1OC (configuration not stated)
Outgoing: 126

Incoming: Now the compound `O=C(Nc1ccccc1Cl)c1c[nH]c(=O)c(-c2ccc(N3CCCOC4(CC4)C3)cc2)c1`
Outgoing: 74.9

Incoming: Now the compound `COc1ccc(-c2nn(-c3cccc(Cl)c3)cc2-c2cc(-c3ccc(Br)cc3)[nH]c(=O)c2C#N)cc1`
Outgoing: 67.9

---

- Tested on: NCI-H226 lung
- TEST_DETAILS: NCI-60 one-dose screen, 48 h (100 = growth as untreated, 0 = no growth, -100 = all killed)
- COND: 10 µM unless noted
This is part of a sample that, as a whole, favours compounds with a hit. Of some 83,000 tested, about 20% had one in any assay.
PARAMETER_MEASURED: growth (%)
Your answer should be a plain number; it is taken to be in %.

Incoming: Bench note: what growth did `CCN(CC)CCN1C(=O)c2c(c3c4ccccc4[nH]c3c3[nH]c4ccccc4c23)C1=O` show?
Outgoing: 86.6

Incoming: Now the molecule `Cc1ccc2c(c1)Nc1ccc(C)cc1C2(C)C`
Outgoing: 98.3

Incoming: Now the molecule `CC(=O)CC/C=C(\C)[C@H](O)[C@H](C)C(=O)O[C@H]1C[C@H](C)C=C2C=C[C@@]3(C)O[C@@H](O)CC(=O)[C@]3(C)[C@H]21`
Outgoing: -50.5

Incoming: Now the molecule `O=C(C[n+]1ccccc1Cl)c1ccc2c(c1)CCCC2`
Outgoing: 112

Incoming: Now the molecule `C=C1C(=O)O[C@H]2[C@H]1CC/C(COC(=O)OC/C1=C/CC[C@@]3(C)O[C@H]3[C@H]3OC(=O)[C@@H](CN(C)C)[C@@H]3CC1)=C\CC[C@@]1(C)O[C@@H]21`
Outgoing: -49.6

Incoming: Now the molecule `N#Cc1c(N)nc(Cl)c(C#N)c1C(=O)c1ccccc1`
Outgoing: 87.9

Incoming: Now the molecule COc1cc(NC(C)CCCN2C(=O)c3ccccc3C2=O)c2nccc(C)c2c1OC (configuration not stated)
Outgoing: 94.1

Incoming: Now the molecule `O=C(Nc1ccc(-n2cc(-c3ccncc3)c(-c3ccc(O)c(Cl)c3)n2)cc1)c1ccc(Cl)c(Cl)c1`
Outgoing: 74.6

Incoming: Now the molecule `O=C(NCCNc1nccc(-c2c(-c3cccc(O)c3)nc3sccn23)n1)c1cc(N2CCOCC2)cc(C(F)(F)F)c1`
Outgoing: 106

Incoming: Now the molecule `c1ccc2nc(Cn3cc[n+](Cc4ccc5ccccc5n4)c3)ccc2c1`
Outgoing: 70.8

Incoming: Now the molecule `CN(C)c1ccc2cc(-c3nc4ccccc4s3)c(N)nc2c1`
Outgoing: 119

Incoming: Now the molecule `O=c1cc(Cl)[nH]c(=O)[nH]1`
Outgoing: 97.5

Incoming: Now the molecule `c1cncc(-c2nc3ccccc3[nH]2)c1`
Outgoing: 92.7

Incoming: Now the molecule `O=C(O)c1ccc(-n2cc(/C=N/Nc3ccccc3F)c(-c3ccc(O)cc3)n2)cc1`
Outgoing: 95.3

Incoming: Now the molecule CCN(CC)CCNCC(O)Cc1ccc(OC)cc1 (configuration not stated)
Outgoing: 90.5

Incoming: Now the molecule `Nc1nc(Nc2ccc(OCc3cccc(F)c3)cc2)c2c(n1)[nH]c1ccc(O)cc12`
Outgoing: -56.2

Incoming: Now the molecule `COc1ccc(-c2nn(-c3ccc(NC(=O)Nc4ccc(Cl)c(Cl)c4)cc3)cc2-c2ccncc2)cc1Cl`
Outgoing: 6.82

Incoming: Now the molecule `Cc1cc(Nc2ccc(Cl)c(Cl)c2)nc(N)n1`
Outgoing: 92

Incoming: Now the molecule CN1CCN(CC(O)COc2c(Br)c(Br)c(Br)c3c2OC(C)(C)C3)CC1 (configuration not stated)
Outgoing: 99.2

Incoming: Now the molecule `Cc1ccc(N(CC2=NCCN2)c2cccc(O)c2)cc1`
Outgoing: 100

Incoming: Now the molecule `Nc1ncc(-c2ccc3ncnc(Nc4ccc(F)c(Cl)c4)c3c2)cn1`
Outgoing: 55.5

Incoming: Now the molecule CC(CCC(=O)O)[C@H]1CCC2C3C(=O)C[C@@H]4CC(=O)CC[C@]4(C)C3CC(=O)[C@@]21C (some centres not stated)
Outgoing: 103

Incoming: Now the molecule `O=C1C(SCCO)=C(SCCO)C(=O)N1c1ccc(-c2ccccc2)cc1`
Outgoing: 74.9

Incoming: Now the molecule `COC(=O)c1ccc2c(c1)Oc1ccc(Cl)cc1-c1cc(C)nn1-2`
Outgoing: 37.4

Incoming: Now the molecule CC(C(=O)O)N1C(N)=NNC1c1ccccc1O (configuration not stated)
Outgoing: 84.6

Incoming: Now the molecule `COc1cc(Nc2ncccc2C(=O)Nc2nc3ccc(F)cc3s2)cc(OC)c1OC`
Outgoing: 57.2

Incoming: Now the molecule Cc1cn(C2CC(N=[N+]=[N-])C(COP(=O)(O)OP(=O)(O)OP(=O)(O)O)O2)c(=O)[nH]c1=O (configuration not stated)
Outgoing: 115

Incoming: Now the molecule `O=C(O)c1ccccc1C(=O)c1ccc(I)cc1`
Outgoing: 101

Incoming: Now the molecule `Cc1ccn2cc(Cc3cc(=O)oc4c3ccc3ccccc34)c(=O)nc2c1`
Outgoing: 96.6

Incoming: Now the molecule `O=C(NCCNc1nccc(-c2c(-c3cccc(O)c3)nc3sccn23)n1)Nc1cccc(C(F)(F)F)c1`
Outgoing: 97

Incoming: Now the molecule `COC(=O)c1oc2c(C(C)=O)c(OCCN3CCCCC3)ccc2c1C`
Outgoing: 118

Incoming: Now the molecule `O=C(Nc1ccc(-n2ccc3c(NC(=O)c4ccccc4)ncnc32)cc1)c1cccc(C(F)(F)F)c1`
Outgoing: 70.8
